Compiled IC50 measurements on Dihydroorotate dehydrogenase (quinone), mitochondrial (Homo sapiens) taken from the literature.

molecule: Cn1nnc2c(C(=O)O)cc(-c3ccc(-c4cccc(CN5CCCCC5)c4)cc3)cc21
tested_system: Dihydroorotate dehydrogenase (quinone), mitochondrial (Homo sapiens)
reading_qualifier: >
IC50 (nM): 1000

molecule: O=C(O)c1cc(C2CC2)ccc1Nc1cnc(-c2ccccc2Cl)nc1
tested_system: Dihydroorotate dehydrogenase (quinone), mitochondrial (Homo sapiens)
reading_qualifier: =
IC50 (nM): 3

molecule: CCn1c(CO)nn(-c2cc3c(C(C)C)cn(-c4c(C)ccnc4Cl)c(=O)c3cc2F)c1=O
tested_system: Dihydroorotate dehydrogenase (quinone), mitochondrial (Homo sapiens)
reading_qualifier: =
IC50 (nM): 3.57

molecule: C[C@H](Oc1cc(-n2nc3n(c2=O)CCC2(CC2)C3)c(F)cc1C(=O)Nc1c(F)cccc1Cl)C1CCC1
tested_system: Dihydroorotate dehydrogenase (quinone), mitochondrial (Homo sapiens)
reading_qualifier: <
IC50 (nM): 50

molecule: O=C(O)c1cc(C2CC2)ccc1Nc1cnc(-c2ccccc2)nc1
tested_system: Dihydroorotate dehydrogenase (quinone), mitochondrial (Homo sapiens)
reading_qualifier: =
IC50 (nM): 105

molecule: [2H]C([2H])([2H])c1ccccc1-n1cc(C(C)C)c2cc(-n3nc(CO)n(CC)c3=O)c(F)cc2c1=O
tested_system: Dihydroorotate dehydrogenase (quinone), mitochondrial (Homo sapiens)
reading_qualifier: =
IC50 (nM): 0.463

molecule: CCn1c(CO)nn(-c2cc3c(C(C)C)nc(-c4ccccc4C)nc3cc2F)c1=O
tested_system: Dihydroorotate dehydrogenase (quinone), mitochondrial (Homo sapiens)
reading_qualifier: =
IC50 (nM): 1.9

molecule: O=C(O)c1cc(C2CC2)ccc1Nc1cnc(-c2cc(F)ccc2F)nc1
tested_system: Dihydroorotate dehydrogenase (quinone), mitochondrial (Homo sapiens)
reading_qualifier: =
IC50 (nM): 38

molecule: CCn1c(CO)nn(-c2cc(OC(C)C(F)(F)F)c(C=Cc3ncccc3Cl)cc2F)c1=O (stereo not shown)
tested_system: Dihydroorotate dehydrogenase (quinone), mitochondrial (Homo sapiens)
reading_qualifier: =
IC50 (nM): 121

molecule: CCn1c(CO)nn(-c2cc3c([C@@H](C)C(F)(F)F)cn(-c4ccccc4C)c(=O)c3cc2F)c1=O
tested_system: Dihydroorotate dehydrogenase (quinone), mitochondrial (Homo sapiens)
reading_qualifier: =
IC50 (nM): 0.26

molecule: O=C(O)c1cc(Cl)ccc1Nc1ccc(-c2ccccc2Cl)nc1
tested_system: Dihydroorotate dehydrogenase (quinone), mitochondrial (Homo sapiens)
reading_qualifier: =
IC50 (nM): 145

molecule: CCc1ccccc1-n1cc(C(C)C)c2cc(-n3nc(CO)n(CC)c3=O)c(F)cc2c1=O
tested_system: Dihydroorotate dehydrogenase (quinone), mitochondrial (Homo sapiens)
reading_qualifier: =
IC50 (nM): 1.21

molecule: C=C(C)C1CN(c2c(C)ccnc2Cl)C(=O)c2cc(F)c(-n3nc(CO)n(CC)c3=O)cc21 (racemic)
tested_system: Dihydroorotate dehydrogenase (quinone), mitochondrial (Homo sapiens)
reading_qualifier: =
IC50 (nM): 7

molecule: Cc1cc(C(=O)O)c2nc(-c3ccc(-c4ccc(Oc5ccc(C=O)cc5)cc4)cc3)[nH]c2c1
tested_system: Dihydroorotate dehydrogenase (quinone), mitochondrial (Homo sapiens)
reading_qualifier: =
IC50 (nM): 1590

molecule: CCn1c(CO)nn(-c2cc3c(C(C)C)cn(-c4cnsc4C)c(=O)c3cc2F)c1=O
tested_system: Dihydroorotate dehydrogenase (quinone), mitochondrial (Homo sapiens)
reading_qualifier: =
IC50 (nM): 3.72
